molecular target: KRAS G13D (Homo sapiens, UniProt P01116+P62937, G13D); test: Disruption of BRAF RBD interaction with Ras (FRET / MOA assay, with Cyclophilin A); type: biochemical; settings: KRAS G13D; read-out: KRAS G13D FRET data IC50
Sequence (P01116 1-169 isoform P01116-2 G13D limits assumed): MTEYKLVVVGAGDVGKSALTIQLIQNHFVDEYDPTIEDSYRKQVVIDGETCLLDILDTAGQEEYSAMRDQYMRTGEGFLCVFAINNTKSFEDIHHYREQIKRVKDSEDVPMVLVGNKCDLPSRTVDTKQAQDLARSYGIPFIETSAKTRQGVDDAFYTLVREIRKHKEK
Sequence (P62937 whole entry): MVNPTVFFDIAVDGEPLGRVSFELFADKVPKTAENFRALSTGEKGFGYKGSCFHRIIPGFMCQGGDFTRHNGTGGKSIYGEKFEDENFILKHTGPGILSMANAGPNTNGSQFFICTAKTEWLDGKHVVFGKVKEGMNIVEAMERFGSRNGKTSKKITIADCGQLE
measured.parameter: IC50

C=CC(=O)N1CC[C@H](C(=O)N(C)[C@H](C(=O)N[C@H]2Cc3cc(O)cc(c3)-c3ccc4c(c3)c(c(-c3cnccc3[C@H](C)OC)n4CC)CC(C)(C)COC(=O)[C@@H]3CCCN(N3)C2=O)C(C)C)C1; 10 to 100 nM
C=CC(=O)N1CC(NC[C@H](C(=O)N[C@H]2Cc3cc(O)cc(c3)-c3ccc4c(c3)c(c(-c3cccnc3COC)n4CC)CC(C)(C)COC(=O)[C@@H]3CCCN(N3)C2=O)C(C)C)C1; > 10000 nM
CCn1c(-c2cccnc2[C@H](C)OC)c2c3cc(ccc31)-c1csc(n1)C[C@H](NC(=O)[C@H](C(C)C)N(C)C(=O)N1CCN(C(=O)C3(N(C)C)CC3)CC1)C(=O)N1CCC[C@H](N1)C(=O)OCC(C)(C)C2 (atropisomer, axis not shown); 100 to 1000 nM

input: Look up and report measured IC50 (KRAS G13D (Homo sapiens, UniProt P01116+P62937, G13D)) for the following compound: C=CC(=O)N(C)CCN(C)C(=O)N(C)[C@H](C(=O)N[C@H]1Cc2nc(cs2)-c2ccc3c(c2)c(c(-c2cccnc2[C@H](C)OCC)n3CC)CC(C)(C)COC(=O)[C@@H]2CCCN(N2)C1=O)C(C)C
output: 1000 to 10000 nM

input: Look up and report measured IC50 (KRAS G13D (Homo sapiens, UniProt P01116+P62937, G13D)) for the following compound: CCn1c(-c2cccnc2[C@H](C)OC)c2c3cc(ccc31)-c1csc(n1)C[C@H](NC(=O)[C@H](C(C)C)N(C)C(=O)N1CC(OC)C1)C(=O)N1CC[C@H](C)[C@H](N1)C(=O)OCC(C)(C)C2
output: 1000 to 10000 nM

input: Look up and report measured IC50 (KRAS G13D (Homo sapiens, UniProt P01116+P62937, G13D)) for the following compound: CCn1c(-c2cccnc2[C@H](C)OC)c2c3cc(ccc31)-c1csc(n1)C[C@H](NC(=O)[C@H](C(C)C)N(C)C(=O)N1C[C@@H]3CN(C)C[C@@H]31)C(=O)N1CCC[C@H](N1)C(=O)OCC(C)(C)C2 (atropisomer, axis not shown)
output: 1000 to 10000 nM

input: Look up and report measured IC50 (KRAS G13D (Homo sapiens, UniProt P01116+P62937, G13D)) for the following compound: CCn1c(-c2cccnc2COC)c2c3cc(ccc31)-c1cc(O)cc(c1)C[C@H](NC(=O)[C@H](C(C)C)N(C)C(=O)[C@H]1CCN(C(=O)C#CC(C)(C)N(C)C)C1)C(=O)N1CCC[C@H](N1)C(=O)OCC(C)(C)C2
output: 1000 to 10000 nM

input: Look up and report measured IC50 (KRAS G13D (Homo sapiens, UniProt P01116+P62937, G13D)) for the following compound: CCn1c(-c2cccnc2[C@H](C)OC)c2c3cc(ccc31)-c1csc(n1)C[C@H](NC(=O)[C@H](C(C)C)N(C)C(=O)N1CCCC[C@@H](N(C)C)C1)C(=O)N1CCC[C@H](N1)C(=O)OCC(C)(C)C2
output: 100 to 1000 nM

input: Look up and report measured IC50 (KRAS G13D (Homo sapiens, UniProt P01116+P62937, G13D)) for the following compound: CCn1c(-c2cnccc2COC)c2c3cc(ccc31)-c1cc(O)cc(c1)C[C@H](NC(=O)[C@H](C(C)C)N(C)C(=O)[C@@H]1CCCN(C)C1)C(=O)N1CCC[C@H](N1)C(=O)OCC(C)(C)C2
output: 100 to 1000 nM

input: Look up and report measured IC50 (KRAS G13D (Homo sapiens, UniProt P01116+P62937, G13D)) for the following compound: CCn1c(-c2cccnc2[C@H](C)OC)c2c3cc(ccc31)-c1csc(n1)C[C@H](NC(=O)[C@H](C(C)C)N(C)C(=O)N1C[C@H](OC)[C@@H](N)C1)C(=O)N1CCC[C@H](N1)C(=O)OCC(C)(C)C2 (atropisomer, axis not shown)
output: 100 to 1000 nM
